Data provenance is patent US20200223889A1.

targetOfAssay: human melanocortin 4 receptor (human, UniProt P32245 1-332)
Sequence (P32245 whole entry): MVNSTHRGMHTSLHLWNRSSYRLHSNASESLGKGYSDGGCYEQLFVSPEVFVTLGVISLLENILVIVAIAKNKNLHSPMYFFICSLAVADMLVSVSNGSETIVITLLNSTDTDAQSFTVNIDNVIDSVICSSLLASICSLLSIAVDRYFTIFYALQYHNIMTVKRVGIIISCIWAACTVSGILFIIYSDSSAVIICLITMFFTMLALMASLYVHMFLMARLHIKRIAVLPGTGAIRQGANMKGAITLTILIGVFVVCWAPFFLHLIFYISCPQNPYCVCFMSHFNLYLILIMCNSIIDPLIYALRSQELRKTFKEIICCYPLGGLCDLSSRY
measurementNotes: cell-based or functional assay
Positions of bridges follow the written chain, without caps; N, C: chain ends. Non-standard residues stand in square brackets, D forms with d. Pro(cis-4-guanidino) = NC(N)=N[C@@H]1CN[C@H](C(=O)O)C1; Ser(ΨH,HPro) = O=C(O)[C@@H]1COCN1
This listing pairs binders with measured MC4R cAMP EC50.
Kindly answer with a numeric value in nM, unit omitted.

binder	result
cyclo(CAH[dF]HWCAH[dF]HW) (disulfide 1-7; SMILES C[C@@H]1NC(=O)[C@@H]2CSSC[C@H](NC(=O)[C@H](Cc3c[nH]c4ccccc34)NC(=O)[C@H](Cc3c[nH]cn3)NC(=O)[C@@H](Cc3ccccc3)NC(=O)[C@H](Cc3c[nH]cn3)NC1=O)C(=O)N[C@@H](C)C(=O)N[C@@H](Cc1c[nH]cn1)C(=O)N[C@H](Cc1ccccc1)C(=O)N[C@@H](Cc1c[nH]cn1)C(=O)N[C@@H](Cc1c[nH]c3ccccc13)C(=O)N2, also called c[c[Cys-Ala-His-D-Phe-His-Trp-Cys]-Ala-His-D-Phe-His-Trp]) [Chem. 24]	0.49
cyclo(CAH[dF]K(Ac)WCAK[dK]KW) (disulfide 1-7; SMILES CC(=O)NCCCC[C@@H]1NC(=O)[C@@H](Cc2ccccc2)NC(=O)[C@H](Cc2c[nH]cn2)NC(=O)[C@H](C)NC(=O)[C@@H]2CSSC[C@H](NC(=O)[C@H](Cc3c[nH]c4ccccc34)NC1=O)C(=O)N[C@@H](C)C(=O)N[C@@H](CCCCN)C(=O)N[C@H](CCCCN)C(=O)N[C@@H](CCCCN)C(=O)N[C@@H](Cc1c[nH]c3ccccc13)C(=O)N2, also called c[c[Cys-Ala-His-D-Phe-AcLys-Trp-Cys]-Ala-Lys-D-Lys-Lys-Trp]) [Chem. 58]	0.11
cyclo(C[Ser(ΨH,HPro)]H[dF]HWCAKKKW) (disulfide 1-7; SMILES C[C@@H]1NC(=O)[C@@H]2CSSC[C@H](NC(=O)[C@H](Cc3c[nH]c4ccccc34)NC(=O)[C@H](CCCCN)NC(=O)[C@H](CCCCN)NC(=O)[C@H](CCCCN)NC1=O)C(=O)N1COC[C@H]1C(=O)N[C@@H](Cc1c[nH]cn1)C(=O)N[C@H](Cc1ccccc1)C(=O)N[C@@H](Cc1c[nH]cn1)C(=O)N[C@@H](Cc1c[nH]c3ccccc13)C(=O)N2, also called c[c[Cys-OXA-His-D-Phe-His-Trp-Cys]-Ala-Lys-Lys-Lys-Trp]) [Chem. 103]	0.05

Q. Report MC4R cAMP EC50 for cyclo(CAH[dF][Pro(cis-4-guanidino)]WCAH[dF][Pro(cis-4-guanidino)]W) (disulfide 1-7; SMILES C[C@@H]1NC(=O)[C@@H]2CSSC[C@H](NC(=O)[C@H](Cc3c[nH]c4ccccc34)NC(=O)[C@@H]3C[C@H](N=C(N)N)CN3C(=O)[C@@H](Cc3ccccc3)NC(=O)[C@H](Cc3c[nH]cn3)NC1=O)C(=O)N[C@@H](C)C(=O)N[C@@H](Cc1c[nH]cn1)C(=O)N[C@H](Cc1ccccc1)C(=O)N1C[C@@H](N=C(N)N)C[C@H]1C(=O)N[C@@H](Cc1c[nH]c3ccccc13)C(=O)N2, also called c[c[Cys-Ala-His-D-Phe-4cis-GuaPro-Trp-Cys]-Ala-His-D-Phe-4cis-GuaPro-Trp]) [Chem. 29] please.
A. 1020
